Origin of the recorded values: paper PMC12920294

- Experimental Protocol: in vivo
- Experimental Conditions: CD1 nude, mouse, 0.5 nmol/mouse, total radioactivity, Kidneys uptake
Experimental Readout: tissue uptake at 1 h (%ID/g)
Please reply with the bare figure in %ID/g and do not write the unit itself.

Look up and state reported tissue uptake at 1 h for Cc1ccc(CCCC(=O)NCCOCCOCCOCCOCCC(=O)NCCCC[C@H](NC(=O)CN2CCN(CC(=O)O)CCN(CC(=O)O)CCN(CC(=O)O)CC2)C(=O)N[C@@H](CC(=O)O)C(=O)N[C@@H](CC2CCCCC2)C(=O)N[C@@H](Cc2ccccc2)C(=O)N[C@H](CO)C(=O)N[C@H](CCCNC(=N)N)C(=O)N[C@@H](Cc2ccc(O)cc2)C(=O)N[C@@H](CC(C)C)C(=O)N[C@@H](Cc2c[nH]c3ccccc23)C(=O)N[C@@H](CO)C(N)=O)cc1 [[^177Lu]Lu-uPAR-11, metal not drawn]
6.8

====

- Assay type: in vitro ADME
- Experimental Conditions: 24 h, 1 µM
Experimental Readout: Human blood plasma stability, intact radiopeptide
Give your result as the value with the unit written after it.

Would you please look over these solved cases?
[
  {
    "Compound": "Cc1ccc(CCCC(=O)NCCOCCOCCOCCOCCC(=O)NCCCC[C@H](NC(=O)CC[C@H](C(=O)O)N2CCN(CC(=O)O)CCN(CC(=O)O)CCN(CC(=O)O)CC2)C(=O)N[C@@H](CC(=O)O)C(=O)N[C@@H](CC2CCCCC2)C(=O)N[C@@H](Cc2ccccc2)C(=O)N[C@H](CO)C(=O)N[C@H](CCCNC(=N)N)C(=O)N[C@@H](Cc2ccc(O)cc2)C(=O)N[C@@H](CC(C)C)C(=O)N[C@@H](Cc2c[nH]c3ccccc23)C(=O)N[C@@H](CO)C(N)=O)cc1 [[^177Lu]Lu-uPAR-17, metal not drawn]",
    "Readout Value": "96 ± 1%"
  },
  {
    "Compound": "Cc1ccc(CCCC(=O)NCCCCCCCC(=O)NCCCC[C@H](NC(=O)CN2CCN(CC(=O)O)CCN(CC(=O)O)CCN(CC(=O)O)CC2)C(=O)N[C@@H](CC(=O)O)C(=O)N[C@@H](CC2CCCCC2)C(=O)N[C@@H](Cc2ccccc2)C(=O)N[C@H](CO)C(=O)N[C@H](CCCNC(=N)N)C(=O)N[C@@H](Cc2ccc(O)cc2)C(=O)N[C@@H](CC(C)C)C(=O)N[C@@H](Cc2c[nH]c3ccccc23)C(=O)N[C@@H](CO)C(N)=O)cc1 [[^177Lu]Lu-uPAR-12, metal not drawn]",
    "Readout Value": "98 ± 1%"
  }
]

Moving on to the next compound.
Look up and state reported Human blood plasma stability, intact radiopeptide for Cc1ccc(CCCC(=O)NCCOCCOCCOCCOCCOCCC(=O)NCCCC[C@H](NC(=O)CN2CCN(CC(=O)O)CCN(CC(=O)O)CCN(CC(=O)O)CC2)C(=O)N[C@@H](CC(=O)O)C(=O)N[C@@H](CC2CCCCC2)C(=O)N[C@@H](Cc2ccccc2)C(=O)N[C@H](CO)C(=O)N[C@H](CCCNC(=N)N)C(=O)N[C@@H](Cc2ccc(O)cc2)C(=O)N[C@@H](CC(C)C)C(=O)N[C@@H](Cc2c[nH]c3ccccc23)C(=O)N[C@@H](CO)C(N)=O)cc1 [[^177Lu]Lu-uPAR-18, metal not drawn]
95 ± 2%
